molecular target: recombinant human TFPI (tissue factor pathway inhibitor) (human, UniProt P10646 29-304); assay: cell-based or functional assay
quantityMeasured: FXa assay OD, 20 nM Ab, 10 nM TFPI
Lab note: record just the number, no unit beside it.

- binder: "clone 3016 (antibody, V domains shown) VH: EVQLVESGGGLVKPGGSLRLSCAASGFTFSSYAMNWVRQAPGKGLEWVSTITTGGSHTYYADSVEGRFTISRDNAKNSLYLQMNSLRAEDTAVYYCARQDGNFLMDYWGQGTLVTVSS VL: DVVMTQTPLSLPVTLGQPASISCKSSQSLLDSDGKTYLNWLQQRPGQSPKRLIYLVSKLDSGVPDRFTGSGSGTDFTLKISRVEAEDVGVYYCWQGTHLPFTFGQGTKVEIKR"
  measured: 0.102
- binder: "clone 1015 (antibody, V domains shown) VH: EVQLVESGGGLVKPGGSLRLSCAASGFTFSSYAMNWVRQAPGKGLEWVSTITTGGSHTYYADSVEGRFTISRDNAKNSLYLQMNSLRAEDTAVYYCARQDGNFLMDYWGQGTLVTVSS VL: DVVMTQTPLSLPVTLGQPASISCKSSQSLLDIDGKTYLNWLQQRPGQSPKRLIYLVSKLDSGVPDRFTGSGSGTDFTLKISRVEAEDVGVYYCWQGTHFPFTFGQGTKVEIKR"
  measured: 0.594
- binder: "clone 1021 (antibody, V domains shown) VH: EVQLVESGGGLVKPGGSLRLSCAASGFTFSSYAMNWVRQAPGKGLEWVSTITTGGSYTYYADSVDGRFTISRDNAKNSLYLQMNSLRAEDTAVYYCARQDGHFLMDYWGQGTLVTVSS VL: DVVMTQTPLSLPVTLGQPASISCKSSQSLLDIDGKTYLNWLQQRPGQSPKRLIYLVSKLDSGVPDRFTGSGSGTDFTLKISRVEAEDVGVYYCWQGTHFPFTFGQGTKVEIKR"
  measured: 0.566

Now for the binder whose FXa assay OD, 20 nM Ab, 10 nM TFPI we want.
Problem: So what's the measured FXa assay OD, 20 nM Ab, 10 nM TFPI for this one? clone 3024 (antibody, V domains shown) VH: EVQLVESGGGLVKPGGSLRLSCAASGFTFSSYAMSWVRQAPGKGLEWVSTITTGGSYTYYADSVQGRFTISRDNAKNSLYLQMNSLRAEDTAVYYCARQDGNFLMDYWGQGTLVTVSS VL: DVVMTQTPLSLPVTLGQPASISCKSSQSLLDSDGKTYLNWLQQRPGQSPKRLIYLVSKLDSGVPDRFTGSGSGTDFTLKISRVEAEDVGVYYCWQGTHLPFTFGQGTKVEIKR
Solution: 0.234
